Molecular target: HLA-A*0201 (Homo sapiens, UniProt P04439, D140Y/D185E/D98H/E176V/E277Q/G131W/G231S/I119V/I121R/I166T/I218V/L300P/L318F/N151K/N90K/P208A/P217A/Q86G/Q94H/R138H/R169H/T345S)
Test: biochemical
Assay type: binding
Details: peptide concentration giving 50% of optimal binding; 10^−4 to 10^−9 M, 21° C. for 18 h; read-out: Affinity (ED50)
Residues, ends and D or L forms follow the SMILES beside them.
log10 EC50 overview
endpoint: log10 EC50 (log10 of the value in nM)

compound	endpoint	testResult
CC(C)C[C@H](NC(=O)[C@@H](NC(=O)[C@H](CO)NC(=O)[C@H](Cc1ccc(O)cc1)NC(=O)[C@H](CO)NC(=O)[C@@H](N)CCCNC(=N)N)[C@@H](C)O)C(=O)N[C@H](C(=O)N[C@H](C(=O)N[C@H](C(=O)O)C(C)C)[C@@H](C)O)[C@@H](C)O [Peptide 443] (H-RSYSTLTTV-OH; N-terminus and C-terminus assumed)	log10 EC50	2.48
CC(C)C[C@H](NC(=O)[C@H](C)NC(=O)[C@H](C)N)C(=O)N[C@@H](CC(C)C)C(=O)N[C@@H](Cc1ccccc1)C(=O)N[C@@H](CS)C(=O)N[C@@H](CC(C)C)C(=O)N[C@@H](CC(C)C)C(=O)N[C@H](C(=O)O)C(C)C [Peptide 357] (H-AALLFCLLV-OH; N-terminus and C-terminus assumed)	log10 EC50	2.00
CC(C)C[C@H](NC(=O)CNC(=O)[C@H](Cc1ccc(O)cc1)NC(=O)[C@H](CCCCN)NC(=O)[C@H](CO)NC(=O)[C@H](Cc1c[nH]cn1)NC(=O)[C@H](CC(C)C)NC(=O)[C@H](CC(C)C)NC(=O)[C@H](C)N)C(=O)O [Peptide 80] (H-ALLHSKYGL-OH; N-terminus and C-terminus assumed)	log10 EC50	3.00
CC[C@H](C)[C@H](NC(=O)[C@H](Cc1c[nH]cn1)NC(=O)[C@H](Cc1c[nH]c2ccccc12)NC(=O)[C@H](CC(C)C)NC(=O)[C@H](CC(N)=O)NC(=O)[C@H](CCC(N)=O)NC(=O)[C@@H](N)CC(=O)O)C(=O)NCC(=O)N[C@@H](CCCNC(=N)N)C(=O)O [Peptide 255]	log10 EC50	2.70
CC[C@H](C)[C@H](NC(=O)[C@@H](NC(=O)CNC(=O)[C@@H](NC(=O)[C@@H](NC(=O)[C@@H](N)C(C)C)C(C)C)C(C)C)C(C)C)C(=O)N[C@@H](C)C(=O)N[C@@H](C)C(=O)N[C@@H](CC(C)C)C(=O)O [Peptide 351, VVVGVIAAL] (H-VVVGVIAAL-OH; N-terminus and C-terminus assumed)	log10 EC50	1.48
CC(C)C[C@H](N)C(=O)N[C@H](C(=O)N[C@@H](CO)C(=O)N[C@@H](C)C(=O)N[C@@H](CO)C(=O)N[C@H](C(=O)N[C@H](C(=O)N[C@H](C(=O)N[C@H](C(=O)O)C(C)C)C(C)C)C(C)C)C(C)C)C(C)C [Peptide 345] (H-LVSASVVVV-OH; N-terminus and C-terminus assumed)	log10 EC50	1.78

Reference source: patent US9266922B2
